Assay: non-covalent RecA intein splicing inhibitors, dose response, biochemical, cell-free, fluorescence, secondary screen (AID 449750)
Activity calls are given as the source filed them. How the calls were made is not given here.
observable: AC50

Example cases with answers are listed next.
# compound, result
rows = [
    ("Nc1ccc(Nc2ccccc2N)cc1", "16 µM"),
    ("N=c1c2c(ncn1Cc1ccco1)Oc1ccc3ccccc3c1C2c1ccccc1 (stereo unspecified)", "13.1 µM"),
    ("CCOC(=O)c1c(NC(=O)c2ccco2)n(C2CCCCC2)c2nc3ccccc3nc12", "> 12 µM (inactive)"),
    ("COc1ccc(-c2cc(C(F)(F)F)nc(S(=O)(=O)CCCC(=O)Nc3cccc(O)c3)n2)cc1OC", "> 38 µM (inactive)"),
    ("CC(NC(=O)COC(=O)c1cc(NS(=O)(=O)c2ccc(Cl)c([N+](=O)[O-])c2)ccc1O)C1CC2CCC1C2 (stereo unspecified)", "1.67 µM"),
]

INPUT: If you can, please state the reported AC50 value of Cc1ccc(S(=O)(=O)NCC2CCC(C(=O)NCCCN3CCOCC3)CC2)cc1 (stereo unspecified) .
OUTPUT: > 38 µM (inactive)

INPUT: Try this compound next: CC(=O)N(C)Cc1ccc(C(=O)CCl)cc1
OUTPUT: > 38 µM (inactive)

====

Test: non-covalent RecA intein splicing inhibitors, dose response, biochemical, cell-free, fluorescence, secondary screen (AID 449750)
Activity calls are given as the source filed them. No rule for the calls is given here.
Tick one outcome: true (1) for active, false (0) for inactive

Please review the entries below; each comes with its answer.
# compound, answer_label
measured = [
    ("O=S(=O)(Cc1ccccc1)c1cnc2ccccc2n1", "false (0)"),
    ("Cc1ccc(CN=Cc2[nH]c3ccc(Br)c(Cl)c3c2O)cc1", "true (1)"),
]

INPUT: Tell me the assay call for CC1C(=O)C(C)C(c2cc(Cl)ccc2O)NC1c1cc(Cl)ccc1O (stereo unspecified) please.
OUTPUT: true (1)

INPUT: Try this compound next: CC(=O)Oc1ccc2c(=O)oc(-c3ccccc3C)nc2c1
OUTPUT: false (0)

INPUT: Try this compound next: COc1ccc(N(C(=O)c2ccco2)S(=O)(=O)c2cccs2)cc1
OUTPUT: false (0)

====

Assay: non-covalent RecA intein splicing inhibitors, dose response, biochemical, cell-free, fluorescence, secondary screen (AID 449750)
Active and inactive are the calls of the source. How the calls were made is not given here.
Tick one outcome: active, inactive

# compound, answer_label
rows = [
    ("O=C(Cc1ccccc1)NC1(O)C(=O)c2ccccc2C1=O", "active"),
    ("COc1cc(NC2CCCCC2O)c2nc(-c3ccc(Cl)cc3)ccc2c1 (configuration not stated)", "active"),
    ("O=C(O)CC1S/C(=N/N=C/c2ccc(-c3ccc(Cl)cc3[N+](=O)[O-])o2)NC1=O (configuration not stated)", "active"),
]

INPUT: Tell me the assay call for CCc1[nH]nc2c1C(c1ccsc1)C(C#N)=C(N)O2 (configuration not stated) please.
OUTPUT: inactive

INPUT: Try this compound next: N#Cc1ncc(Cc2ccccc2)nc1C#N
OUTPUT: inactive

INPUT: Try this compound next: O=C1/C(=C\c2cc([N+](=O)[O-])ccc2O)SC(=S)N1Cc1ccc(Cl)cc1
OUTPUT: active

INPUT: Try this compound next: N[C@@H]1CCCC[C@H]1N.O=C(O)C(=O)O.[Pt]
OUTPUT: inactive

INPUT: Try this compound next: CCc1ccc(S(=O)(=O)/N=C2\C=C(Nc3ccc(O)cc3)C(=O)c3ccccc32)cc1
OUTPUT: active

INPUT: Try this compound next: c1coc(-c2nnc(-c3ccco3)nn2)c1
OUTPUT: active

====

Assay: non-covalent RecA intein splicing inhibitors, dose response, biochemical, cell-free, fluorescence, secondary screen (AID 449750)
Calls of active or inactive are those of the source. How the calls were made is not given here.
observable: AC50

INPUT: If you can, please state the reported AC50 value of Cc1ccc(NC(=O)C2=C(c3ccccc3)S(=O)(=O)CCS2(=O)=O)cc1 .
OUTPUT: > 38 µM (inactive)

INPUT: Try this compound next: CCCCNC1=CC(=O)C(=O)c2ccccc21
OUTPUT: 7.53 µM

INPUT: Try this compound next: COc1ccc(N2CCN(C(=O)c3ccc(Oc4ccc(C(F)(F)F)cn4)cc3)CC2)cc1
OUTPUT: > 38 µM (inactive)

INPUT: Try this compound next: COc1cc(/C=N\NC(=O)c2ccccc2F)ccc1Oc1ccc([N+](=O)[O-])cn1
OUTPUT: > 38 µM (inactive)

====

Assay: non-covalent RecA intein splicing inhibitors, dose response, biochemical, cell-free, fluorescence, secondary screen (AID 449750)
Activity calls are given as the source filed them. No rule for the calls is given here.
Tick one outcome: yes (1) (active), no (0) (inactive)

Please review the entries below; each comes with its answer.
# compound, answer_label
data = [
    ("O=C(O)c1ccc(S(=O)(=O)/N=C2\\C=C(Nc3ccccc3F)C(=O)c3ccccc32)cc1", "yes (1)"),
    ("Cc1ccsc1/C=N/NC(=O)Cc1cc(=O)[nH][nH]1", "yes (1)"),
    ("Cc1nn(-c2ccccc2)c2c1C(c1ccco1)C(C#N)=C(N)O2 (stereo not given)", "yes (1)"),
    ("Cc1ccc(NC(=O)c2cnc(SCC(=O)NCC3CCCO3)n(C)c2=O)cc1C (stereo not given)", "no (0)"),
    ("O=C(O)/C=C/C(=O)Nc1ccc(SC(F)(F)C(F)(F)C(F)(F)F)cc1", "yes (1)"),
    ("O=C(CCl)N(c1ccc(Cl)cc1)c1c[nH]c2ccccc12", "yes (1)"),
    ("COc1cc(C2C(C#N)=C(N)Oc3n[nH]c(-c4cccnc4)c32)cc(Br)c1O (stereo not given)", "yes (1)"),
    ("CCc1cccc(CC)c1NC(=O)/C(C#N)=C/c1ccccc1C(F)(F)F", "yes (1)"),
    ("Brc1ccc(Cn2c(-c3ccc(Br)o3)nc3ccccc32)o1", "yes (1)"),
]

Next compound, please.
INPUT: Tell me the assay call for CCN(CC)c1ccc(/C=N/Nc2nc(C)cc(=O)[nH]2)c(O)c1 please.
OUTPUT: no (0)

====

Assay: non-covalent RecA intein splicing inhibitors, dose response, biochemical, cell-free, fluorescence, secondary screen (AID 449750)
Activity calls are given as the source filed them. The rule behind the calls is not given here.
Tick one outcome: 1.0 (active), 0.0 (inactive)

Please review the entries below; each comes with its answer.
# compound, answer_label
measured = [
    ("CCOc1ccccc1C1C(C#N)=C(N)Nc2onc(-c3ccccc3)c21 (stereo not given)", 1.0),
    ("CC(/C=C1\\SC(=S)N(NC(=O)c2cccc(O)c2)C1=O)=C\\c1ccccc1", 1.0),
    ("CC(=O)N(Cc1ccc(F)cc1)C1=C(NCCc2ccccc2)C(=O)c2ccccc2C1=O", 1.0),
    ("CCOc1cc(/C=C2\\C(=O)N(c3ccc(C(N)=O)cc3)N=C2C)ccc1OC(=O)c1cccs1", 1.0),
    ("Cc1[nH]n(C(C)(C)C)c(=O)c1Sc1ccccc1", 0.0),
]

INPUT: Tell me the assay call for Cc1[nH]nc2c1C(c1ccsc1C)C(C#N)=C(N)O2 (stereo not given) please.
OUTPUT: 0.0

INPUT: Try this compound next: CCSc1nnc(NC(=O)c2nc(S(=O)(=O)Cc3ccc(F)cc3)ncc2Cl)s1
OUTPUT: 0.0

INPUT: Try this compound next: OCC[n+]1c2ccccc2nc2ccc(N3CCOCC3)cc21
OUTPUT: 1.0

INPUT: Try this compound next: CCN1CCN(c2c(Cl)cccc2NC(=O)c2ccc3c(c2)OCCO3)CC1
OUTPUT: 0.0

INPUT: Try this compound next: c1ccc(C2[C@H]3CN(Cc4cccnc4)[C@H](c4ccccc4)C34CC2(c2cccnc2)C4)cc1 (stereo not given in full)
OUTPUT: 1.0

====

Test: non-covalent RecA intein splicing inhibitors, dose response, biochemical, cell-free, fluorescence, secondary screen (AID 449750)
Active and inactive are the calls of the source. How the calls were made is not given here.
Tick one outcome: active, inactive

Please review the entries below; each comes with its answer.
# compound, answer_label
data = [
    ("CC(=O)Nc1ccc(NC(=O)c2nc(S(=O)(=O)Cc3cccc(C)c3)ncc2Cl)cc1", "inactive"),
    ("COc1ccc(NC(=O)/C(C#N)=C/c2ncc([N+](=O)[O-])n2C)c(OC)c1", "inactive"),
    ("O=[N+]([O-])C(/C=C(\\Cl)[N+](=O)[O-])=C1N(Cc2ccc(Cl)nc2)CCN1Cc1ccc(Cl)nc1", "inactive"),
    ("O=C(CCN1C(=O)/C(=C\\c2ccccc2F)SC1=S)Nc1ccc(C(=O)O)c(O)c1", "active"),
    ("COc1ccc(OC)c(C(c2c(C)[nH][nH]c2=O)c2c(C)[nH][nH]c2=O)c1", "active"),
]

INPUT: Tell me the assay call for O=C1c2ccccc2C(=O)c2c1ncn2-c1ccccc1 please.
OUTPUT: inactive

INPUT: Try this compound next: O=C(N/N=C/c1cc(Cl)cc([N+](=O)[O-])c1O)c1ccccc1NS(=O)(=O)c1cccs1
OUTPUT: active

INPUT: Try this compound next: COC(=O)C1=NN(C(C)=O)C2(CC(=O)N(c3cc(C)cc(C)c3)C2=O)C1 (centres undefined)
OUTPUT: inactive

INPUT: Try this compound next: CCOC(=O)c1c(NC(=O)CSc2nnc(-c3c[nH]c4ccccc34)n2CCOC)sc2c1CCCC2
OUTPUT: inactive
